# measured-on: 14-3-3σ/C-RAF (Homo sapiens)
# Construct: The 14-3-3 σ isoform (full-length for mass spectrometry and fluorescence anisotropy assays, ΔC for crystallography); made in house; host or cells: E. coli Rosetta 2(DE3)pLysS, pPROEX HTb vector
# Sequence (P31947 whole entry, canonical isoform): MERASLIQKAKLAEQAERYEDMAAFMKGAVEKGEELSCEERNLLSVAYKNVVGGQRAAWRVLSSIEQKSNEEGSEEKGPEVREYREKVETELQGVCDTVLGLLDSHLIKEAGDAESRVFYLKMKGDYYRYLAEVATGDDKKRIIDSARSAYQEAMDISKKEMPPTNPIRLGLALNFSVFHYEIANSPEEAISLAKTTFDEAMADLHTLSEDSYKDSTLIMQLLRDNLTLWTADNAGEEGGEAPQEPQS
# assay-overview: Mass spectrometry dose response, compound binding to 14-3-3σ in the presence of C-RAF phosphopeptide
# recorded-conditions: 100 nM compound, 100 nM 14-3-3σ, C-RAF peptide 18 µM, head prints 24h
# Excerpt: Two orthogonal assays were developed for screening. For the primary assay, mass spectrometry (MS) was used to monitor the formation of the covalent bond between the compound and the native cysteine (Cys38 on 14-3-3σ) (Figure 1D). […] As a secondary assay, fluorescence anisotropy (FA) was used. […]
endpoint-name: Percentage (%) bound of compound to 14-3-3σ, CRAF 24h

1) O=C(CCl)NCC1CCN(C(=O)C2(Nc3ccc(Cl)cc3)CCNCC2)CC1 [compound 131] = 4.6
2) O=C(CCl)NC1CC2(CCN(C(=O)C3(Nc4ccc(Cl)cc4)CCOCC3)CC2)C1 [compound 166] = 11.8
3) Cl.O=C(CCl)NCC1CCN(C(=O)C2(Oc3ccc(Cl)cc3)CCNCC2)CC1 [compound 129] = 1.9
4) O=C(CCl)NCC1CCN(C(=O)C2(Oc3ccc(Cl)cc3)CCOCC2)CC1 [compound 126] = 3.6
5) O=C(CCl)CCC1CCN(C(=O)C2(Nc3ccc(Cl)cc3)CCOCC2)CC1 [compound 156] = 92.0
6) O=C(CCl)N1CCC2(CC1)CC(CNC(=O)C1(Nc3ccc(Cl)cc3)CCOCC1)C2 [compound 175] = 9.6
7) CC(C)(Nc1ccc(Cl)cc1)C(=O)N1CCC(CNC(=O)CCl)CC1 [compound 84] = 2.9
8) CC1CC(Nc2ccc(Cl)cc2)(C(=O)N2CCC(CNC(=O)CCl)CC2)CC(C)O1 (stereo not shown) [compound 178] = 2.0

[1] O=C(CCl)NCC1CCN(C(=O)C2(Nc3ccc(Cl)cc3)CCC(F)(F)CC2)CC1 [compound 125]
[2] O=C(CCl)NCC1CCN(C(=O)C2(Nc3ccccc3)CCCC2)CC1 [compound 120]
[3] O=C(CCl)NCC1CCN(C(=O)C2(Nc3ccc(Cl)cc3)CCCCC2)CC1 [compound 123]
[4] CC(C)(Oc1ccc(Cl)cc1)C(=O)N1CCC(CCCNC(=O)CCl)CC1 [compound 29]
**Query** In this exercise, place the 4 compounds in ascending sequence of their recorded Percentage (%) bound of compound to 14-3-3σ, CRAF 24h. // ordering of labels required in reply
**Result** 2, 3, 4, 1

[1] O=C(CCl)NCCCC1CCN(C(=O)C2(Nc3ccc(Cl)cc3)CCNCC2)CC1 [compound 153]
[2] O=C(CCl)NCC1CCN(C(=O)C2(Oc3ccc(Cl)cc3)CCCC2)CC1 [compound 117]
[3] CC(C)(Oc1ccc(Cl)cc1)C(=O)N1CCC(NC(=O)CCl)CC1 [compound 26]
**Query** Please order the records by their reported Percentage (%) bound of compound to 14-3-3σ, CRAF 24h, lowest number first. To answer, arrange all of the labels according to the requested order.
**Result** 1, 3, 2

====

# measured-on: 14-3-3σ/ERα (Homo sapiens, UniProt P03372+P31947)
# Construct: The 14-3-3 σ isoform (full-length for mass spectrometry and fluorescence anisotropy assays, ΔC for crystallography); made in house; host or cells: E. coli Rosetta 2(DE3)pLysS, pPROEX HTb vector
# Sequence (P31947 whole entry, other chains not shown, canonical isoform): as the sequence (P31947 whole entry, canonical isoform) above
# assay-overview: Mass spectrometry dose response, compound binding to 14-3-3σ in the presence of ERα phosphopeptide
# recorded-conditions: 100 nM compound, 100 nM 14-3-3σ, ERα-peptide 2 µM, 8h
endpoint-name: Percentage (%) bound of compound to 14-3-3σ, ERα 8h

1) CC(C)(Oc1ccc(Cl)cc1)C(=O)N1CCC(CCC(=O)CCl)CC1 = 97.6

[A] O=C(CCl)NCCCC1CCN(C(=O)C2(Nc3ccc(Cl)cc3)CCOCC2)CC1
[B] CC(C)(Nc1ccc(Cl)cc1)C(=O)N1CCC(CNC(=O)CCl)CC1
**Query** Among A and B , whose measured Percentage (%) bound of compound to 14-3-3σ, ERα 8h is the smaller figure? Please identify the chosen entry by its label.
**Result** B

====

# measured-on: 14-3-3σ (Homo sapiens, UniProt P31947)
# Construct: The 14-3-3 σ isoform (full-length for mass spectrometry and fluorescence anisotropy assays, ΔC for crystallography); made in house; host or cells: E. coli Rosetta 2(DE3)pLysS, pPROEX HTb vector
# Sequence (P31947 whole entry, canonical isoform): as above
# assay-overview: Mass spectrometry dose response, compound binding to 14-3-3σ in the absence of peptide (apo)
# recorded-conditions: 100 nM compound, 100 nM 14-3-3σ, 16h
# Description: Two orthogonal assays were developed for screening. For the primary assay, mass spectrometry (MS) was used to monitor the formation of the covalent bond between the compound and the native cysteine (Cys38 on 14-3-3σ) (Figure 1D). […] As a secondary assay, fluorescence anisotropy (FA) was used. […]
endpoint-name: Percentage (%) bound of compound to 14-3-3σ, APO 16h

These recorded examples may help you get a feel for the data.
1. CC(C)(Oc1ccc(Cl)cc1)C(=O)N1CCC(CCNC(=O)CCl)CC1 [compound 28] = 1.9
2. CC(C)(Oc1ccc(Cl)cc1)C(=O)N1CCC(CCCNC(=O)CCl)CC1 [compound 29] = 0
3. O=C(CCl)NCC1CCN(C(=O)C2(Oc3ccc(Cl)cc3)CCC(F)(F)CC2)CC1 [compound 124] = 1.4

[A] Cl.NC1CCC(Nc2ccccc2)(C(=O)N2CCC(CNC(=O)CCl)CC2)CC1 (stereo not drawn) [compound 141]
[B] O=C(CCl)NC1CC2(CCN(C(=O)C3(Nc4ccc(Cl)cc4)CCOCC3)CC2)C1 [compound 166]
**Query** Please indicate which item has the smaller measured Percentage (%) bound of compound to 14-3-3σ, APO 16h: A versus B To answer, give the label that identifies your chosen option.
**Result** A
(A: 0.8%, B: 5.5%)

====

# measured-on: 14-3-3σ (Homo sapiens, UniProt P31947)
# Construct: The 14-3-3 σ isoform (full-length for mass spectrometry and fluorescence anisotropy assays, ΔC for crystallography); made in house; host or cells: E. coli Rosetta 2(DE3)pLysS, pPROEX HTb vector
# assay-overview: Mass spectrometry dose response, compound binding to 14-3-3σ in the absence of peptide (apo)
# recorded-conditions: 100 nM compound, 100 nM 14-3-3σ, 8h
endpoint-name: Percentage (%) bound of compound to 14-3-3σ, APO 8h

1. O=C(CCl)NCC1CCN(C(=O)C2(Nc3ccc(Cl)cc3)CCC(F)(F)CC2)CC1 = 1.1

[1] O=C(CCl)N1CCC2(CC1)CCN(C(=O)C1(Nc3ccc(Cl)cc3)CCOCC1)CC2
[2] O=C(CCl)NCC1CCN(C(=O)C2(Oc3ccc(Cl)cc3)CCCCC2)CC1
[3] O=C(CCl)NCC1CCN(C(=O)C2(Nc3ccc(Cl)cc3)CCCCC2)CC1
**Query** Please rank these molecules by Percentage (%) bound of compound to 14-3-3σ, APO 8h in descending order. Please list the labels according to the requested order.
**Result** 1, 3, 2
(1: 1.8%, 3: 1.0%, 2: 0%)

====

# measured-on: 14-3-3σ/C-RAF (Homo sapiens)
# Construct: The 14-3-3 σ isoform (full-length for mass spectrometry and fluorescence anisotropy assays, ΔC for crystallography); made in house; host or cells: E. coli Rosetta 2(DE3)pLysS, pPROEX HTb vector
# assay-overview: Mass spectrometry dose response, compound binding to 14-3-3σ in the presence of C-RAF phosphopeptide
# recorded-conditions: 100 nM compound, 100 nM 14-3-3σ, C-RAF peptide 18 µM, 1h
endpoint-name: Percentage (%) bound of compound to 14-3-3σ, CRAF 1h

1) CC(C)(Oc1ccc(Cl)cc1)C(=O)N1CCC(NC(=O)CCl)CC1 [compound 26] = 0.0
2) O=C(CCl)NCCCC1CCN(C(=O)C2(Nc3ccc(Cl)cc3)CCNCC2)CC1 [compound 153] = 0
3) O=C(CCl)NCC1CCN(C(=O)C2(Nc3ccc(Cl)cc3)CCCC2)CC1 [compound 118] = 2.9
4) Cl.O=C(CCl)NCC1CCN(C(=O)C2(Nc3ccccc3)CCNCC2)CC1 [compound 133] = 0
5) Cl.NC1CCC(Nc2ccccc2)(C(=O)N2CCC(CNC(=O)CCl)CC2)CC1 (centres unmarked) [compound 141] = 1.0

[a] O=C(CCl)NCCC1CCN(C(=O)C2(Nc3ccc(Cl)cc3)CCNCC2)CC1 [compound 151]
[b] CC(C)(Oc1ccc(Cl)cc1)C(=O)N1CCC(CCCNC(=O)CCl)CC1 [compound 29]
[c] NC1CCC(Oc2ccc(Cl)cc2)(C(=O)N2CCC(CNC(=O)CCl)CC2)CC1 (centres unmarked) [compound 135]
**Query** Order the 3 molecules from highest to lowest Percentage (%) bound of compound to 14-3-3σ, CRAF 1h. # the answer lists labels in the order requested
**Result** b, c, a
(b: 1.0%, c: 0.5%, a: 0%)
